Where do the numbers come from? From patent US11591313B2.

- test.target: Recombinant Human ENPP-1 Protein (Homo sapiens (Human), UniProt P22413)
- Sequence (P22413 whole entry, looked up): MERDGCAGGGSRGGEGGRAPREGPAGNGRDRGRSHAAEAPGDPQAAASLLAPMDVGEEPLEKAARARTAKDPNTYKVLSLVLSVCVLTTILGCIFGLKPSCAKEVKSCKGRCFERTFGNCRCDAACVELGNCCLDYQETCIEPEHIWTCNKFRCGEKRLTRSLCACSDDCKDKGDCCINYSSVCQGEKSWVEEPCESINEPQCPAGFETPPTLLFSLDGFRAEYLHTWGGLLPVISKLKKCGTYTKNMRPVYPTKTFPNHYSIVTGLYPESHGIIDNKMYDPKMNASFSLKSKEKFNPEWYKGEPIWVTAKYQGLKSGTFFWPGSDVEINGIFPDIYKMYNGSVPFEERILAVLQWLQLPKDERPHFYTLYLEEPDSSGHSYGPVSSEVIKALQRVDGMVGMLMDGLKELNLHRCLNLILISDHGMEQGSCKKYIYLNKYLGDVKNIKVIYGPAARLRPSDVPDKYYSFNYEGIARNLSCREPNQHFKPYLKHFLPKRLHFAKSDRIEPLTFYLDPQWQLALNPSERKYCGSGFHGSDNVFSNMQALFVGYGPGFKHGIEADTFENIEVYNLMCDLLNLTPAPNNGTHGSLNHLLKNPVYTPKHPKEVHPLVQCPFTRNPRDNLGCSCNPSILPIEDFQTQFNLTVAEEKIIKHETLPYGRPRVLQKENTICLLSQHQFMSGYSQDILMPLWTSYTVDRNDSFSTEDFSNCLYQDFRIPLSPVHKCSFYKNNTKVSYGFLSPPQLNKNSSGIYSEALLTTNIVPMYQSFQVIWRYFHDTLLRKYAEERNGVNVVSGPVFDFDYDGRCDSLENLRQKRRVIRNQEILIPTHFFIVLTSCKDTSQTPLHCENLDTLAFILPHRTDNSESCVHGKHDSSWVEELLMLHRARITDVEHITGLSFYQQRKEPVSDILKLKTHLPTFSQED
- Format: binding
- setup.conditions: SYPRO Orange protein melt
measured.parameter: Thermal Shift @10 uM (dTm (o C.))

{"columns": ["compound", "test.target", "observed.measurement"],
 "data": [
  ["COc1cc2ncnc(OCCCCCNS(N)(=O)=O)c2cc1OC", "Recombinant Human ENPP-1 Protein (Homo sapiens (Human), UniProt P22413)", "$$ ($$ <3o C.)"],
  ["COc1cc2ncnc(N3CCCN(S(N)(=O)=O)CC3)c2cc1OC.Cl [Compound 015-HCl]", "Recombinant Human ENPP-1 Protein (Homo sapiens (Human), UniProt P22413)", "$$$ ($$$ >3o C.)"],
  ["COc1cc2ncnc(CCCCCNS(N)(=O)=O)c2cc1OC", "Recombinant Human ENPP-1 Protein (Homo sapiens (Human), UniProt P22413)", "$$ ($$ <3o C.)"],
  ["COc1cc2ncnc(N(C)CCCCCNS(N)(=O)=O)c2cc1OC", "Recombinant Human ENPP-1 Protein (Homo sapiens (Human), UniProt P22413)", "$$ ($$ <3o C.)"],
  ["COc1cc2ncnc(OCCCCNS(N)(=O)=O)c2cc1OC", "Recombinant Human ENPP-1 Protein (Homo sapiens (Human), UniProt P22413)", "$$$ ($$$ >3o C.)"],
  ["COc1cc2ncnc(NCCCCCNS(N)(=O)=O)c2cc1OC", "Recombinant Human ENPP-1 Protein (Homo sapiens (Human), UniProt P22413)", "$$ ($$ <3o C.)"],
  ["COc1cc2ncnc(N3CCCC(CCNS(N)(=O)=O)CC3)c2cc1OC (stereo not drawn) [Compound 060]", "Recombinant Human ENPP-1 Protein (Homo sapiens (Human), UniProt P22413)", "$$$ ($$$ >3o C.)"],
  ["COc1cc2ncnc(N3CCCN(CCNS(N)(=O)=O)CC3)c2cc1OC", "Recombinant Human ENPP-1 Protein (Homo sapiens (Human), UniProt P22413)", "$$ ($$ <3o C.)"],
  ["COc1cc2ncnc(N3CCCC(CCNS(N)(=O)=O)CC3)c2cc1OC (stereo not drawn) [Compound 049]", "Recombinant Human ENPP-1 Protein (Homo sapiens (Human), UniProt P22413)", "$$$ ($$$ >3o C.)"]
]}
